The measurements presented in this section are drawn from patent US10053497B2.

# Test system: PBMC from coeliac disease subjects
# experiment.summary: IFNγ ELISPOT with PBMC of coeliac disease subjects after bread/gluten challenge (agonist bioactivity of peptides)
# Type: cell-based, human
# condition.notes: peptide 25 mcg/ml plus tTG 8 mcg/ml, minus blank, relative to A-gliadin 57-73 plus tTG; mean (SEM), n=5
quantity: % Bioactivity

Enter reported % Bioactivity observed with PBMC from coeliac disease subjects for Q40055 (166-182): Barley C-hordein homologue, SEQ ID NO: 762 (QQPFPLQPQLPFPQPQQ)
2.3 (2.0) %

Enter reported % Bioactivity observed with PBMC from coeliac disease subjects for P21292 (96-112): Wheat γ-gliadin homologue, SEQ ID NO: 763 (QQTFPQQPQLPFPQQPQ)
2.1 (4.2) %

Enter reported % Bioactivity observed with PBMC from coeliac disease subjects for AAG17702 (141-157): Wheat ω-gliadin homologue of A-gliadin 57-73, SEQ ID NO: 761 (PQQPFPQPQLPFPQQSE)
32 (6.4) %

Enter reported % Bioactivity observed with PBMC from coeliac disease subjects for P16315 (67-83): Wheat LMW glutenin homologue, SEQ ID NO: 766 (LQQQPILPQLPFSQQQQ)
−0.9 (1.0) %
